subject-of-test: UniProt Q5VWK5
assay-comment: Inhibition of interleukin-23 binding to human interleukin-23 receptor incubated for 2 hrs by competitive binding ELISA
pIC50: −log10 of the molar value. *1 amine or outer side, *2 acyl side, *3 side chain or, on linkers, in order; H or OH if unused. Where a SMILES comes first, the peptide text is derived from it. Bridges are numbered along the chain shown (N, C = ends). [ ]: non-standard residue; d: D form. Abu(4-yl) = O=C([C@H](CC[*:3])N[*:1])[*:2]; 2Nal = N[C@@H](Cc1ccc2ccccc2c1)C(=O)O; AEF = NCCOc1ccc(C[C@H](N)C(=O)O)cc1; αMeL = CC(C)C[C@](C)(N)C(=O)O

molecule	subject-of-test	pIC50
CC(=O)N[C@@H](CS)C(=O)N[C@H](C(=O)N[C@H](C(=O)N[C@@H](Cc1c[nH]c2ccccc12)C(=O)N[C@@H](CCC(=O)O)C(=O)N[C@@H](CS)C(=O)N[C@@H](Cc1ccc(O)cc1)C(=O)N[C@@H](Cc1c[nH]c2ccccc12)C(=O)N[C@@H](Cc1cnc[nH]1)C(=O)N[C@@H](CCC(N)=O)C(=O)N[C@@H](Cc1ccccc1)C(=O)NCC(N)=O)[C@@H](C)O)[C@@H](C)O (Ac-CTTWECYWHQFG-NH2)	UniProt Q5VWK5	> 6.30
CC(=O)NCCCC[C@H](NC(=O)[C@](C)(CC(C)C)NC(=O)[C@H](Cc1ccc2ccccc2c1)NC(=O)[C@H](Cc1ccc(OCCN)cc1)NC(=O)[C@@H]1CSCC[C@H](NC(C)=O)C(=O)N[C@@H](CCC(N)=O)C(=O)N[C@@H]([C@@H](C)O)C(=O)N[C@@H](Cc2c[nH]c3ccccc23)C(=O)N[C@@H](CCC(N)=O)C(=O)N1)C(=O)N[C@@H](CC(N)=O)C(=O)N[C@@H](CC(N)=O)C(N)=O (Ac-[Abu(4-yl)]QTWQC[AEF][2Nal][αMeL]K(Ac)NN-NH2; thioether 1-6)	UniProt Q5VWK5	> 8.00
COc1ccc(C[C@H](NC(=O)[C@@H]2CSCC[C@H](NC(C)=O)C(=O)N[C@@H](CCC(N)=O)C(=O)N[C@@H]([C@@H](C)O)C(=O)N[C@@H](Cc3c[nH]c4ccccc34)C(=O)N[C@@H](CCC(N)=O)C(=O)N2)C(=O)N[C@@H](Cc2ccc3ccccc3c2)C(=O)N[C@H](C(=O)N[C@@H](CCCCNC(C)=O)C(=O)N[C@@H](CC(N)=O)C(=O)NCC(N)=O)C2CCCCC2)cc1	UniProt Q5VWK5	7.00 to 7.60

----------
Reported pIC50 values for a set of compounds
subject-of-test: Interleukin-23 receptor (Homo sapiens)
Sequence (Q5VWK5 whole entry): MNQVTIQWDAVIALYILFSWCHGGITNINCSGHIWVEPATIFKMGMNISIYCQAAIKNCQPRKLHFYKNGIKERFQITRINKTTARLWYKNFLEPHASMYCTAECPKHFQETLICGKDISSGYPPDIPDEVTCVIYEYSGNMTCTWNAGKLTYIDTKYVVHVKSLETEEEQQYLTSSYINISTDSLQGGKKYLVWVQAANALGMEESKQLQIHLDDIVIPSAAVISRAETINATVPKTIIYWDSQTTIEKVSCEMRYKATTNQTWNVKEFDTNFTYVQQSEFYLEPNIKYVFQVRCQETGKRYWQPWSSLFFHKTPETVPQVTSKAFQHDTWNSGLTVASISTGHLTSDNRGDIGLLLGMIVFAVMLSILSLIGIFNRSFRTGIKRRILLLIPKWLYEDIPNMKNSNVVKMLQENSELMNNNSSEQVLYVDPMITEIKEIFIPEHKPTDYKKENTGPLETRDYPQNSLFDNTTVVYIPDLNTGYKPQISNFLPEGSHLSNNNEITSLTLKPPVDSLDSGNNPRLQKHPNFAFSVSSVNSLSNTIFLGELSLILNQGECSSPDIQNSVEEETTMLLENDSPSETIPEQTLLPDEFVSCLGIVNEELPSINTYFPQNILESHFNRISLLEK
assay-comment: Inhibition of interleukin-23 binding to human interleukin-23 receptor incubated for 2 hrs by competitive binding ELISA
pIC50: −log10 of the molar value. Where a SMILES comes first, the peptide text is derived from it.

compound	subject-of-test	pIC50
CC(C)[C@H](NC(=O)[C@H](Cc1c[nH]c2ccccc12)NC(=O)[C@H](CC(=O)O)NC(=O)[C@H](C)NC(=O)[C@@H](N)CS)C(=O)N[C@@H](CS)C(=O)N[C@@H](Cc1ccc(O)cc1)C(=O)N[C@@H](Cc1cccc2ccccc12)C(=O)N[C@@H](Cc1cnc[nH]1)C(=O)N[C@H](C(=O)N(C)[C@@H](Cc1ccccc1)C(N)=O)[C@@H](C)O	Interleukin-23 receptor (Homo sapiens)	< 6.00
CC(=O)N[C@@H](CS)C(=O)N[C@@H](CCC(N)=O)C(=O)N[C@H](C(=O)N[C@@H](Cc1c[nH]c2ccccc12)C(=O)N[C@@H](CCC(N)=O)C(=O)N[C@@H](CS)C(=O)N[C@@H](Cc1ccc(O)cc1)C(=O)N[C@@H](Cc1c[nH]c2ccccc12)C(=O)N[C@@H](CCCNC(=N)N)C(=O)N[C@@H](CCC(=O)O)C(=O)N[C@@H](CC(N)=O)C(=O)NCC(N)=O)[C@@H](C)O (Ac-CQTWQCYWRENG-NH2)	Interleukin-23 receptor (Homo sapiens)	> 6.30
CC(=O)N[C@H](C(=O)N[C@@H](CCCNC(=N)N)C(=O)N[C@H](C(=O)N[C@@H](Cc1c[nH]c2ccccc12)C(=O)N[C@@H](CCC(N)=O)C(=O)N[C@@H](CS)C(=O)N[C@@H](Cc1ccc(O)cc1)C(=O)N[C@@H](Cc1c[nH]c2ccccc12)C(=O)N[C@@H](CCCNC(=N)N)C(=O)N[C@@H](CCCCN)C(=O)N[C@@H](Cc1ccccc1)C(=O)NCC(=O)NCCOCC(=O)N[C@H](CCCCN)C(N)=O)[C@@H](C)O)C(C)(C)S	Interleukin-23 receptor (Homo sapiens)	6.00 to 7.00
CC(=O)NCCCC[C@H](NC(=O)[C@](C)(CCCN)NC(=O)[C@H](Cc1ccc2ccccc2c1)NC(=O)[C@H](Cc1ccc2ccccc2c1)NC(=O)[C@@H]1CSCC[C@H](NC(C)=O)C(=O)N[C@@H](CCC(N)=O)C(=O)N[C@@H]([C@@H](C)O)C(=O)N[C@@H](Cc2c[nH]c3ccccc23)C(=O)N[C@@H](CCC(N)=O)C(=O)N1)C(=O)N[C@@H](CC(N)=O)C(=O)NCC(N)=O	Interleukin-23 receptor (Homo sapiens)	7.00 to 7.60
CC(=O)N[C@@H](CS)C(=O)N[C@H](C(=O)N[C@H](C(=O)N[C@@H](Cc1c[nH]c2ccccc12)C(=O)N[C@@H](CCC(=O)O)C(=O)N[C@@H](CS)C(=O)N[C@@H](Cc1ccc(O)cc1)C(=O)N[C@@H](Cc1c[nH]c2ccccc12)C(=O)N[C@@H](Cc1cnc[nH]1)C(=O)N[C@@H](CCC(=O)O)C(=O)N[C@@H](Cc1ccc(O)cc1)C(=O)NCC(N)=O)[C@@H](C)O)[C@@H](C)O (Ac-CTTWECYWHEYG-NH2)	Interleukin-23 receptor (Homo sapiens)	> 6.30
CC(=O)N[C@H](C(=O)N[C@@H](CCC(N)=O)C(=O)N[C@H](C(=O)N[C@@H](Cc1c[nH]c2ccccc12)C(=O)N[C@@H](CCC(N)=O)C(=O)N[C@H](C(=O)N[C@@H](Cc1ccc(OCCN)cc1)C(=O)N[C@@H](Cc1ccc2ccccc2c1)C(=O)N[C@@](C)(CCCCN)C(=O)N[C@@H](CCC(=O)O)C(=O)N[C@@H](CC(N)=O)C(=O)NCC(N)=O)C(C)(C)S)[C@@H](C)O)C(C)(C)S	Interleukin-23 receptor (Homo sapiens)	7.60 to 8.00

----------
assay-comment: Half life in simulated intestinal fluid at 20 uM by LC-MS/MS analysis
Format: ADME

chemical-smiles	half-life at 20 µM
CC(=O)NCCCC[C@H](NC(=O)C(C)(C)NC(=O)[C@H](Cc1ccc2ccccc2c1)NC(=O)[C@H](Cc1ccc(OCCN)cc1)NC(=O)[C@@H](NC(=O)[C@H](CCC(N)=O)NC(=O)[C@H](Cc1c[nH]c2ccccc12)NC(=O)[C@@H](NC(=O)[C@H](CCC(N)=O)NC(=O)[C@@H](NC(C)=O)C(C)(C)S)[C@@H](C)O)C(C)(C)S)C(=O)N[C@@H](CC(N)=O)C(=O)N[C@@H](CCC(N)=O)C(N)=O	> 6 h
COc1ccc(C[C@H](NC(=O)[C@@H](NC(=O)[C@H](CCC(N)=O)NC(=O)[C@H](Cc2c[nH]c3ccccc23)NC(=O)[C@@H](NC(=O)[C@H](CC(N)=O)NC(=O)[C@@H](NC(C)=O)C(C)(C)S)[C@@H](C)O)C(C)(C)S)C(=O)N[C@@H](Cc2ccc3ccccc3c2)C(=O)N[C@@H](CCC(C)C)C(=O)N[C@@H](CCCCNC(C)=O)C(=O)N[C@@H](CC(N)=O)C(=O)NCCC(N)=O)cc1	< 1 h
CC(=O)N[C@H]1CCSC[C@@H](C(=O)N[C@@H](Cc2ccc(OCCN)cc2)C(=O)N[C@@H](Cc2ccc3ccccc3c2)C(=O)N[C@@](C)(CCCCN)C(=O)N[C@@H](CCCCNC(=O)c2ccccc2)C(=O)N[C@@H](CC(N)=O)C(=O)NCC(N)=O)NC(=O)[C@H](CCC(N)=O)NC(=O)[C@H](Cc2c[nH]c3ccccc23)NC(=O)[C@H]([C@@H](C)O)NC(=O)[C@H](CCC(N)=O)NC1=O	3 to 6 h
COc1ccc(C[C@H](NC(=O)[C@@H]2CSCC[C@H](NC(C)=O)C(=O)N[C@@H](CCC(N)=O)C(=O)N[C@@H]([C@@H](C)O)C(=O)N[C@@H](Cc3c[nH]c4ccccc34)C(=O)N[C@@H](CCC(N)=O)C(=O)N2)C(=O)N[C@@H](Cc2ccc3ccccc3c2)C(=O)N[C@@](C)(CCCN)C(=O)N[C@@H](CCC(=O)O)C(=O)N[C@@H](CC(N)=O)C(=O)NCC(N)=O)cc1	2 to 3 h
CC(=O)N[C@H]1CCSC[C@@H](C(=O)N[C@@H](Cc2ccc(O)cc2)C(=O)N[C@@H](Cc2c[nH]c3ccccc23)C(=O)N[C@@H](CCCNC(=N)N)C(=O)N[C@@H](CCC(=O)O)C(=O)N[C@@H](CC(N)=O)C(=O)NCC(=O)NCCOCC(=O)N[C@H](CCCCN)C(N)=O)NC(=O)[C@H](CCC(N)=O)NC(=O)[C@H](Cc2c[nH]c3ccccc23)NC(=O)[C@H]([C@@H](C)O)NC(=O)[C@H](CCC(N)=O)NC1=O	< 1 h
